Each recorded value in this set is attributed to paper PMC9037101.

Type: in vivo, Sprague-Dawley (SD) rats
experimentalConditions: male, Sprague-Dawley, rat, plasma, po, 15 mL kg^−1
Tmax values for the molecules below.
metric: Tmax (min)

INSERT INTO assay_data (molecule, metric, reportedmeasurement) VALUES
  ('O=c1cc(-c2ccc(O)c(O)c2)oc2cc(O)cc(O)c12', 'Tmax', 5),
  ('C[C@@H]1O[C@@H](OC[C@H]2O[C@@H](Oc3c(-c4ccc(O)c(O)c4)oc4cc(O)cc(O)c4c3=O)[C@H](O)[C@@H](O)[C@@H]2O)[C@H](O)[C@H](O)[C@H]1O', 'Tmax', 5),
  ('O=c1c(O)c(-c2ccc(O)c(O)c2)oc2cc(O)cc(O)c12', 'Tmax', 5),
  ('COc1ccc(-c2cc(=O)c3c(O)cc(O)cc3o2)cc1', 'Tmax', 10),
  ('C[C@@H]1O[C@@H](O[C@@H]2[C@@H](O)[C@H](OCCc3ccc(O)c(O)c3)O[C@H](CO)[C@H]2OC(=O)/C=C/c2ccc(O)c(O)c2)[C@H](O)[C@H](O)[C@H]1O [Acteoside, acteoside]', 'Tmax', 10),
  ('O=c1cc(-c2ccc(O)cc2)oc2cc(O)cc(O)c12', 'Tmax', 180);

----------
assayDetails: Stability of the analytes in rat plasma QC samples
Assay type: in vitro ADME
experimentalConditions: room temperature for 8 h, low QC spiked concentration
metric: Short-tern stability: Measured concentration (ng/mL)

INSERT INTO results (compound, unitdescriptor, reportedmeasurement) VALUES
  ('O=c1cc(-c2ccc(O)cc2)oc2cc(O)cc(O)c12 [Apigenin, apigenin]', 'ng/mL', 7.17),
  ('O=c1cc(-c2ccc(O)c(O)c2)oc2cc(O)cc(O)c12 [Luteolin, luteolin]', 'ng/mL', 6.76),
  ('O=c1c(O)c(-c2ccc(O)c(O)c2)oc2cc(O)cc(O)c12 [Quercetin, quercetin]', 'ng/mL', 2.80),
  ('C[C@@H]1O[C@@H](OC[C@H]2O[C@@H](Oc3c(-c4ccc(O)c(O)c4)oc4cc(O)cc(O)c4c3=O)[C@H](O)[C@@H](O)[C@@H]2O)[C@H](O)[C@H](O)[C@H]1O [Rutin]', 'ng/mL', 6.36),
  ('C[C@@H]1O[C@@H](O[C@@H]2[C@@H](O)[C@H](OCCc3ccc(O)c(O)c3)O[C@H](CO)[C@H]2OC(=O)/C=C/c2ccc(O)c(O)c2)[C@H](O)[C@H](O)[C@H]1O [Acteoside, acteoside]', 'ng/mL', 2.11),
  ('COc1ccc(-c2cc(=O)c3c(O)cc(O)cc3o2)cc1 [Acacetin, acacetin]', 'ng/mL', 4.69);

----------
assayDetails: Stability of the analytes in rat plasma QC samples
Type: in vitro ADME
experimentalConditions: 3 free thaw cycles, low QC spiked concentration
Free-thaw stability: Measured concentration values for the compounds below.
metric: Free-thaw stability: Measured concentration (ng/mL)

INSERT INTO assay_data (compound, unitdescriptor, reportedmeasurement) VALUES
  ('C[C@@H]1O[C@@H](OC[C@H]2O[C@@H](Oc3c(-c4ccc(O)c(O)c4)oc4cc(O)cc(O)c4c3=O)[C@H](O)[C@@H](O)[C@@H]2O)[C@H](O)[C@H](O)[C@H]1O [Rutin]', 'ng/mL', 6.2),
  ('O=c1c(O)c(-c2ccc(O)c(O)c2)oc2cc(O)cc(O)c12 [Quercetin, quercetin]', 'ng/mL', 2.78),
  ('O=c1cc(-c2ccc(O)cc2)oc2cc(O)cc(O)c12 [Apigenin, apigenin]', 'ng/mL', 7.34),
  ('C[C@@H]1O[C@@H](O[C@@H]2[C@@H](O)[C@H](OCCc3ccc(O)c(O)c3)O[C@H](CO)[C@H]2OC(=O)/C=C/c2ccc(O)c(O)c2)[C@H](O)[C@H](O)[C@H]1O [Acteoside, acteoside]', 'ng/mL', 2.1),
  ('COc1ccc(-c2cc(=O)c3c(O)cc(O)cc3o2)cc1 [Acacetin, acacetin]', 'ng/mL', 4.81),
  ('O=c1cc(-c2ccc(O)c(O)c2)oc2cc(O)cc(O)c12 [Luteolin, luteolin]', 'ng/mL', 6.60);
